// data source = patent US20240391954A1

Biological target: human MC3R (Homo sapiens)
Construct: expressed in transfected cells; host or cells: HEK-293 cells stably expressing the GScAMP22F split-luciferase cAMP sensor (parent reporter line from Promega); MC3R clone generated in-house, G418 selection
Sequence (P41968 whole entry): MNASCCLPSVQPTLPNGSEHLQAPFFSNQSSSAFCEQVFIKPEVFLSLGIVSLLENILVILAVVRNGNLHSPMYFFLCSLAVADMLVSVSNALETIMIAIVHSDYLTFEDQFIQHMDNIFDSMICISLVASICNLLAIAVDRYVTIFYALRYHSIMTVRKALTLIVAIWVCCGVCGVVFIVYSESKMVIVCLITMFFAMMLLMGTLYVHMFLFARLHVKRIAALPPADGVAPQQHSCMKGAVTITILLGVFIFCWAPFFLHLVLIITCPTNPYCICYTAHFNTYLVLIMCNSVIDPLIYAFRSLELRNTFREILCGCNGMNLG
Assay: split-luciferase cAMP sensor assay, agonist mode (measurement window 1), hMC3R
Type: cell-based
Details: MC4R versus MC3R
Protocol: The stable cell lines were grown and maintained in selection media consisting of Dulbecco's modified Eagle media (DMEM) with 4.5 g/l D-glucose, and 4 mM L-glutamine (Thermo Fisher Scientific, Waltham, MA), supplemented with 10% fetal bovine serum, 100 units/ml penicillin, 100 μg/ml streptomycin, 2.5 μg/ml amphotericin B, 200 μg/ml hygromycin B (for positive selection of the GScAMP22f luciferase reporter), and Geneticin™ (G418) 700 μg/ml (for MC3R or MC4R selection). […]
Positions of bridges follow the written chain, without caps; N, C: chain ends. Non-standard residues stand in square brackets, D forms with d. Residues, ends and D or L forms follow the SMILES beside them. d1Nal = N[C@H](Cc1cccc2ccccc12)C(=O)O; Cit = NC(=O)NCCC[C@H](N)C(=O)O; Nle = CCCC[C@H](N)C(=O)O; Aib = CC(C)(N)C(=O)O
Entries and their MC4R selectivity vs MC3R values follow.

// below: answered compounds
CCCC[C@H](NC(=O)[C@H](CCCNC(=N)N)NC(C)=O)C(=O)N[C@H]1CSSC[C@@H](C(N)=O)NC(=O)[C@H](Cc2c[nH]c3ccccc23)NC(=O)[C@H](CCCNC(=N)N)NC(=O)[C@@H](Cc2cccc3ccccc23)NC(=O)[C@H](CCCNC(=N)N)NC1=O [CTX-1611] (Ac-R[Nle]CR[d1Nal]RWC-NH2; disulfide 3-8 (inferred)); 6.61
CCCC[C@H](NC(=O)[C@H](CCCNC(=N)N)NC(C)=O)C(=O)N[C@H]1CSSC[C@@H](C(N)=O)NC(=O)[C@@H](Cc2c[nH]c3ccccc23)NC(=O)[C@H](CCCNC(=N)N)NC(=O)[C@@H](Cc2ccccc2)NC(=O)[C@H](CCCNC(=N)N)NC1=O [CTX-1616] (Ac-R[Nle]CR[dF]R[dW]C-NH2; disulfide 3-8); 3.78
CC(=O)N[C@@H](CCCNC(=N)N)C(=O)N[C@H]1CSSC[C@@H](C(N)=O)NC(=O)[C@H](Cc2c[nH]c3ccccc23)NC(=O)[C@H](CCCNC(=N)N)NC(=O)[C@@H](Cc2ccccc2)NC(=O)[C@H](CCCNC(N)=O)NC(=O)CNC1=O [CTX-1294, Arg-cyclo(Cys-Gly-Cit-D-Phe-Arg-Trp-Cys)] (Ac-RCG[Cit][dF]RWC-NH2; disulfide 2-8 (inferred)); 11
CC(=O)N[C@@H](CCCNC(=N)N)C(=O)N[C@H]1CSSC[C@@H](C(N)=O)NC(=O)[C@@H](Cc2c[nH]c3ccccc23)NC(=O)[C@H](CCCNC(=N)N)NC(=O)[C@@H](Cc2ccccc2)NC(=O)[C@H](CCCNC(N)=O)NC(=O)C(C)(C)NC1=O [CTX-1290] (Ac-RC[Aib][Cit][dF]R[dW]C-NH2; disulfide 2-8); 9.23

Briefly, MC4R selectivity vs MC3R measured for N=C(N)NCCC[C@@H]1NC(=O)CNC(=O)CSC[C@@H](C(N)=O)NC(=O)[C@H](Cc2ccccc2)NC(=O)[C@H](CCCNC(=N)N)NC(=O)[C@@H](Cc2ccccc2)NC1=O [CTX-1654] ({CH2CO}-GR[dF]RFC-NH2; thioether N-6) : 5.41

Briefly, MC4R selectivity vs MC3R measured for CC1(C)NC(=O)CSC[C@@H](C(N)=O)NC(=O)[C@H](Cc2ccccc2)NC(=O)[C@H](CCCNC(=N)N)NC(=O)[C@@H](Cc2ccccc2)NC(=O)[C@H](CCCNC(=N)N)NC1=O [CTX-1651] ({CH2CO}-[Aib]R[dF]RFC-NH2; thioether N-6) : >8

Briefly, MC4R selectivity vs MC3R measured for CC(=O)N[C@H]1CSSC[C@@H](C(N)=O)NC(=O)[C@H](Cc2c[nH]c3ccccc23)NC(=O)[C@H](CCCNC(=N)N)NC(=O)[C@@H](Cc2ccccc2)NC(=O)[C@H](CCCNC(N)=O)NC(=O)[C@@H](C)NC1=O [CTX-1628, cyclo(Cys-D-Ala-Cit-D-Phe-Arg-Trp-Cys)] (Ac-C[dA][Cit][dF]RWC-NH2; disulfide 1-7 (inferred)) : 6.37
